- Assay target: Major prion protein (Homo sapiens) (UniProt P04156)
- Run description: confirmation of inhibitors of cell surface human prion protein, confirmation, cell-based, TR-FRET (AID 743200)
- Condition parameters: cell surface PrPC level, at 13.8 µM
Hit rate of the full screen: of about 1,500 compounds, about 950 (63%) were called active. Rule as the data show it: active = inhibition above about 25%; inactive = the rest. So high a share suggests a set chosen from earlier hits. Only a sample is shown.
Outcome (select one): yes (1) (active), no (0) (inactive)

{"Molecule": "O=C(COC(=O)c1ccccc1SCC(=O)NC1CCCCC1)NC1CCCCC1", "Label value": "yes (1)"}
{"Molecule": "COc1ccc(OC)c(NC(=O)c2cc(-c3cc(F)ccc3OCC3CCCO3)n[nH]2)c1 (stereo not given)", "Label value": "no (0)"}
{"Molecule": "CC(=O)N1CCCc2cc(S(=O)(=O)N3CCCC(C(=O)NCc4ccc(Cl)cc4)C3)ccc21 (stereo not given)", "Label value": "no (0)"}
{"Molecule": "CC(=O)N1c2ccc(S(=O)(=O)N3CCCC(C(=O)Nc4cccc(F)c4)C3)cc2CC1C (stereo not given)", "Label value": "yes (1)"}

Kindly review the next molecule as well.
Query :: Tell me the recorded outcome of this test for O=C(Nc1cccn(Cc2ccccc2Cl)c1=O)NC1CCCCC1 .
Result :: no (0)
